FYI, the data here is from patent EP4610269A1.

Target: uPAR-expressing HEC-265 human endometrial adenocarcinoma cells (Homo sapiens, UniProt Q03405)
Sequence (Q03405 23-335): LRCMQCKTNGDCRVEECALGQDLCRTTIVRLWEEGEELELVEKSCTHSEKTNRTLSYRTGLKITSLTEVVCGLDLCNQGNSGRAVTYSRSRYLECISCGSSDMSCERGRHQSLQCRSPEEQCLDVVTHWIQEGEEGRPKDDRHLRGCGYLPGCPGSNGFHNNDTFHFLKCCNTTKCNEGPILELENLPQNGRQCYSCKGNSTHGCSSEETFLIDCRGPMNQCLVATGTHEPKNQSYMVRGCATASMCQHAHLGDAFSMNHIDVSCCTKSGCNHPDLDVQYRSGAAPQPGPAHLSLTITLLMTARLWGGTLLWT
Where a SMILES comes first, the peptide text is derived from it. Bridges are numbered along the chain shown (N, C = ends). [ ]: non-standard residue; d: D form. The star is where a group is joined. DOTA = O=C(O)CN1CCN(CC(=O)O)CCN(CC(=O)*)CCN(CC(=O)O)CC1; Pro(cis-4-F) = O=C(O)[C@@H]1C[C@H](F)CN1; NMeR = CN[C@@H](CCCNC(=N)N)C(=O)O; Hyp = O=C(O)[C@@H]1C[C@@H](O)CN1; Pentanoyl(4-Me) = CC(C)CCC(=O)*; Cit = NC(=O)NCCC[C@H](N)C(=O)O; Butoxycarbonyl = CCCCOC(=O)*; Pip = O=C(O)[C@@H]1CCCCN1; Dab = NCC[C@H](N)C(=O)O; Nva = CCC[C@H](N)C(=O)O; Hexanoyl = CCCCCC(=O)*; Pentanoyl = CCCCC(=O)*; Aib = CC(C)(N)C(=O)O
Measured Endpoint: IC50

{"Molecule": "CC[C@H](C)[C@@H]1NC(=O)[C@@H](C)NC(=O)[C@@H]2CCCN2C(=O)[C@H](Cc2ccccc2)NC(=O)[C@H](Cc2ccc(O)cc2)NC(=O)[C@H](CCCCNC(=O)CN2CCN(CC(=O)O)CCN(CC(=O)O)CCN(CC(=O)O)CC2)NC(=O)[C@H](CCCNC(N)=O)NC(=O)[C@@H](NC(=O)[C@H](CC(C)C)NC(=O)[C@H](CC(=O)O)NC(C)=O)CSSC[C@@H](C(N)=O)NC(=O)[C@H](CC(C)C)NC1=O [UPAR-189] (Ac-DLC[Cit]K(DOTA)YFP[dA]ILC-NH2; disulfide 3-12)", "Measured Endpoint": "IC50", "Observed Result": "≤ 10 nM"}
{"Molecule": "CCCCC(=O)N[C@H]1CSSC[C@@H](C(N)=O)NC(=O)[C@H](CCC)NC(=O)[C@H]([C@@H](C)CC)NC(=O)[C@@H]2C[C@@H](O)CN2C(=O)[C@@H]2CCCN2C(=O)[C@H](Cc2ccccc2)NC(=O)[C@H](Cc2ccc(O)cc2)NC(=O)[C@H](CCC(N)=O)NC(=O)[C@@H]2CCCN2C1=O [UPAR-361] (Pentanoyl-CPQYFP[Hyp]I[Nva]C-NH2; disulfide 1-10)", "Measured Endpoint": "IC50", "Observed Result": "≤ 10 nM"}
{"Molecule": "CC[C@H](C)[C@@H]1NC(=O)[C@@H]2CCCCN2C(=O)[C@@H]2CCCN2C(=O)[C@H](Cc2ccccc2)NC(=O)[C@H](Cc2ccc(O)cc2)NC(=O)[C@H](CCC(N)=O)NC(=O)[C@H](CCCNC(N)=O)NC(=O)[C@@H](NC(=O)CCC(C)C)CSSC[C@@H](C(N)=O)NC(=O)[C@H](CC(C)C)NC1=O [UPAR-469] ({Pentanoyl(4-Me)}-C[Cit]QYFP[Pip]ILC-NH2; disulfide 1-10)", "Measured Endpoint": "IC50", "Observed Result": "12.6 to 31.6 nM"}
{"Molecule": "CC[C@H](C)[C@@H]1NC(=O)C(C)(C)NC(=O)[C@@H]2CCCN2C(=O)[C@H](Cc2ccccc2)NC(=O)[C@H](Cc2ccc(O)cc2)NC(=O)[C@H](CCCCNC(=O)CN2CCN(CC(=O)O)CCN(CC(=O)O)CCN(CC(=O)O)CC2)NC(=O)[C@H](CCCNC(N)=O)NC(=O)[C@@H](NC(=O)CCC(C)C)CSSC[C@@H](C(N)=O)NC(=O)[C@H](CC(C)C)NC1=O [UPAR-452] ({Pentanoyl(4-Me)}-C[Cit]K(DOTA)YFP[Aib]ILC-NH2; disulfide 1-10)", "Measured Endpoint": "IC50", "Observed Result": "≤ 10 nM"}
{"Molecule": "CC[C@H](C)[C@@H]1NC(=O)[C@@H](C)NC(=O)[C@@H]2CCCN2C(=O)[C@H](Cc2ccccc2)NC(=O)[C@H](Cc2ccc(O)cc2)NC(=O)[C@H](CCC(N)=O)NC(=O)[C@H](CCCNC(=N)N)N(C)C(=O)[C@@H](NC(=O)CCC(C)C)CSSC[C@@H](C(N)=O)NC(=O)[C@H](CC(C)C)NC1=O [UPAR-287] ({Pentanoyl(4-Me)}-C[NMeR]QYFP[dA]ILC-NH2; disulfide 1-10)", "Measured Endpoint": "IC50", "Observed Result": "≥ 126 nM"}
{"Molecule": "CCCCOC(=O)N[C@H]1CSSC[C@@H](C(N)=O)NC(=O)[C@H](CCC)NC(=O)[C@H]([C@@H](C)CC)NC(=O)[C@@H]2C[C@@H](O)CN2C(=O)[C@@H]2C[C@H](F)CN2C(=O)[C@H](Cc2ccccc2)NC(=O)[C@H](Cc2ccc(O)cc2)NC(=O)[C@H](CCC(N)=O)NC(=O)[C@H]([C@@H](C)O)NC1=O [UPAR-358] (Butoxycarbonyl-CTQYF[Pro(cis-4-F)][Hyp]I[Nva]C-NH2; disulfide 1-10)", "Measured Endpoint": "IC50", "Observed Result": "≤ 10 nM"}
{"Molecule": "CC[C@H](C)[C@@H]1NC(=O)[C@H]([C@@H](C)CC)NC(=O)[C@@H](C)NC(=O)[C@@H]2CCCN2C(=O)[C@H](Cc2ccccc2)NC(=O)[C@H](Cc2ccc(O)cc2)NC(=O)[C@H](CCC(N)=O)NC(=O)[C@H](CCCNC(N)=O)NC(=O)[C@@H](NC(=O)CCC(C)C)CSSC[C@@H](C(N)=O)NC1=O [UPAR-405] ({Pentanoyl(4-Me)}-C[Cit]QYFP[dA]IIC-NH2; disulfide 1-10)", "Measured Endpoint": "IC50", "Observed Result": "12.6 to 31.6 nM"}
{"Molecule": "CCC[C@@H]1NC(=O)[C@H]([C@@H](C)CC)NC(=O)[C@@H](C)NC(=O)[C@@H]2CCCN2C(=O)[C@H](Cc2ccccc2)NC(=O)[C@H](Cc2ccc(O)cc2)NC(=O)[C@H](CCC(N)=O)NC(=O)[C@H](CCCNC(N)=O)NC(=O)[C@@H](NC(=O)CCC(C)C)CSSC[C@@H](C(N)=O)NC1=O [UPAR-429] ({Pentanoyl(4-Me)}-C[Cit]QYFP[dA]I[Nva]C-NH2; disulfide 1-10)", "Measured Endpoint": "IC50", "Observed Result": "≤ 10 nM"}
{"Molecule": "CCCCCC(=O)N[C@@H](CC(=O)O)C(=O)N[C@@H](CC(C)C)C(=O)N[C@H]1CSSC[C@@H](C(N)=O)NC(=O)[C@H](CC(C)C)NC(=O)[C@H]([C@@H](C)CC)NC(=O)[C@H](C)NC(=O)[C@@H]2CCCN2C(=O)[C@H](Cc2ccccc2)NC(=O)[C@H](Cc2ccc(O)cc2)NC(=O)[C@H](CCSC)NC(=O)[C@H](CCCNC(=N)N)NC1=O [UPAR-363] (Hexanoyl-DLCRMYFPAILC-NH2; disulfide 3-12)", "Measured Endpoint": "IC50", "Observed Result": "≤ 10 nM"}
{"Molecule": "CCCCC(=O)N[C@H]1CCNC(=O)CC[C@@H](C(N)=O)NC(=O)[C@H](CCC)NC(=O)[C@H]([C@@H](C)CC)NC(=O)[C@@H]2C[C@@H](O)CN2C(=O)[C@@H]2CCCN2C(=O)[C@H](Cc2ccccc2)NC(=O)[C@H](Cc2ccc(O)cc2)NC(=O)[C@H](CCC(N)=O)NC(=O)[C@H](CCCNC(=N)N)NC1=O [UPAR-390] (Pentanoyl-[Dab]RQYFP[Hyp]I[Nva]E-NH2; lactam 1-10)", "Measured Endpoint": "IC50", "Observed Result": "≥ 126 nM"}
